tested on: HL-60; experiment: NCI tumour cell line growth inhibition, 48 h
The source made the active and inactive calls. Rule as the data show it: active = GI50 up to about 1.1 µM and inactive = higher.
Outcomes: active, inactive

molecule | class label
[O-][n+]1c2c([n+]([O-])c3ccccc31)CCCCCCCCCC2 | inactive
Cc1ncc(COP(=O)(O)O)c(C)c1O | inactive
CCC(C)(C)c1ccc(OCCCCNC(=O)c2ccc3ccccc3c2O)c(C(C)(C)CC)c1 | inactive
O=C1/C(=C/c2ccccc2)CCCc2ccccc21 | inactive
N#CCCN(CCC#N)c1ccc(/C=C2\N=C(c3ccccc3)N(c3ccccn3)C2=O)cc1 | inactive
COc1ccc(N2C(=O)C3c4[nH]c5cc(C)ccc5c4C4CCC(C(C)(C)C)CC4C3C2=O)cc1 (stereo not given) | inactive
COc1ccc(OC)c2c1C(=O)C(Cl)=C(Cl)C2=O | inactive
CC1=C(O)/C(=C/C(C)CCC/C(C)=C/C=C/C(C)CCCc2ccoc2)OC1=O (stereo not given) | inactive
COC(=O)C1OC(O[C@H]2CC[C@]3(C)[C@H]4CC=C5[C@@H]6CC(C)(C)CC[C@]6(C(=O)OC)CC[C@@]5(C)[C@]4(C)CC[C@H]3C2(C)C)C(O)C(O)C1O (stereo not given in full) | inactive
O=C(OC1OC2COC(=O)c3cc(O)c(O)c(O)c3-c3c(cc(O)c(O)c3O)C(=O)OC3C2OC(=O)[C@@]24CC(=O)[C@@](O)(OC25C(=O)O[C@H]2[C@@H](O)CO[C@@]25O)C2(O)Oc5c(O)c(O)cc(c5C24)C(=O)OC13)c1cc(O)c(O)c(O)c1 (stereo not given in full) | inactive
CCN1CCc2sc3nc(S)n(C)c(=O)c3c2C1 | active
COc1nc(N(C)C)nc2c1[n+](C)cn2C | inactive
COc1cc(NS(C)(=O)=O)ccc1NCc1c[nH]c2ccc3ncccc3c12 | active
C/C(=N\NC(=S)NNC(=S)N(C)c1ccccc1)c1ccccn1 | active
CCCCc1ccc(Nc2nc(O)c3ncn(COCCO)c3n2)cc1 | inactive
CN(C)c1ccc(/C=C2\CCc3ccccc3C2=O)cc1Br | inactive
NCCNC(=O)CN(CC(=O)O)C1CCCCC1N(CC(=O)O)CC(=O)O (stereo not given) | inactive
Nc1nccc(NCC2(CO)CCC2)n1 | inactive
CCc1ncnc2cc(OCC3CO3)c(OC)cc12 (stereo not given) | active
COc1cc2oc(=O)ccc2cc1C(=O)CC(C)C | inactive
